- subject_of_test: T1, huCD33-R69 stably expressed on Jurkat cells (human, UniProt P20138 18-364)
- T1 construct: whole, on cells; >200,000 receptors per cell; also called CD33 WT; CD33^ARG69
- method_description: FACS on cells;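 further: fixed Jurkat lines probed with myc-tagged scFv periplasmic extracts, anti-myc PE flow cytometry, PE MFI fold binned − <2, + 2–10, ++ 10–30, +++ >30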
readout: FACS geometric mean fold change over Jurkat parental

May I ask what FACS geometric mean fold change over Jurkat parental has been recorded for Polypeptide No. 114 (scFv, V domains shown, scFv) VH: QVQLVQSGAEVKKPGASVKVSCKASGGTFSKYAISWVRQAPGQGLEWMGWMNPNSGNTGYAQKFQGRVTMTRDTSTSTVYMELSSLRSEDTAVYYCARDQGLTGYFDLWGRGTLVTVSS VL: DIQMTQSPSSLSASVGDRVTITCRASQSIGNWLAWYQQKPGKAPKLLIYKASSLESGVPSRFSGSGSGTDFTLTISSLQPEDFATYYCQQSYNTPPTFGPGTKVDIKR ?
> 30 fold

Report FACS geometric mean fold change over Jurkat parental for Polypeptide No. 106 (scFv, V domains shown, scFv) VH: QVQLVQSGAEVKKPGASVKVSCKASGYTFTGYYMHWVRQAPGQGLEWMGRIKPNSGGTDYAQKFQGRVTMTRDTSTSTVYMELSSLRSEDTAVYYCARGAYSGSYYGPIEYFQHWGQGTLVTVSS VL: DIQMTQSPSSLSASVGDRVTITCRASQSISWFLNWYQQKPGKAPKLLIYAASSLQNGVPSRFSGSGSGTDFTLTISSLQPEDFATYYCQQYGSFPPTFGGGTKVEIKR please.
2 to 10 fold

Tell me the measured FACS geometric mean fold change over Jurkat parental of Polypeptide No. 101 (scFv, V domains shown, scFv) VH: EVQLLESGGGLVQPGGSLRLSCAASGFTFSSYGVHWVRQAPGKGLEWVSAISGDGGDTYYADSVKGRFTISRDNSKNTLYLQMNSLRAEDTAVYYCARDTWDYSNYGGIDYWGQGTLVTVSS VL: DIQMTQSPSSLSASVGDRVTITCRASQNINTFLNWYQQKPGKAPKLLIYAASTLQSGVPSRFSGSGSGTDFTLTISSLQPEDFATYYCQQYDSFPLTFGGGTKVEIKR , please.
> 30 fold

What value of FACS geometric mean fold change over Jurkat parental has been recorded for this entry: Polypeptide No. 130 (scFv, V domains shown, scFv) VH: QVQLVQSGAEVKKPGASVKVSCKASGGTFSNYAISWVRQAPGQGLEWMAWMNPNSGNTGYAQKFQGRVTMTRDTSTSTVYMELSSLRSEDTAVYYCARDGFIGFGELFSAFDIWGQGTMVTVSS VL: DIQMTQSPSSLSASVGDRVTITCRASQSIGTWLAWYQQKPGKAPKLLIYGATRLLSGVPSRFSGSGSGTDFTLTISSLQPEDFATYYCQQSYSTPPTFGQGTKLEIKR
10 to 30 fold

For the binder Polypeptide No. 116 (scFv, V domains shown, scFv) VH: EVQLLESGGGLVQPGGSLRLSCAASGFTFSNYAMAWVRQAPGKGLEWVSAISGSGGGTYYADSVKGRFTISRDNSKNTLYLQMNSLRAEDTAVYYCAREGGYDPDYYYYGMDVWGQGTTVTVSS VL: DIQMTQSPSSLSASVGDRVTITCRASQSISSYLNWYQQKPGKAPKLLIYATSRLQSGVPSRFSGSGSGTDFTLTISSLQPEDFATYYCQQGFNFPPTFGGGTKVEIKR , what FACS geometric mean fold change over Jurkat parental is on record?
> 30 fold
